- protocol.summary: Solubility of therapeutic peptides
- Format: physicochemical
- particulars: DMEM/10% FBS

>  <substance>
TAMRA-NH-(R)8-W-D-(Q)10-CONH2 ({TAMRA}-RRRRRRRRWDQQQQQQQQQQ-NH2) [TAMRA-8R10Q]

>  <Solubility (DMEM/10% FBS)>
Soluble

$$$$
>  <substance>
H-RRRRRRRRWDQQQQQ-NH2 [Peptide 8R5Q, NH2-(R)8-W-D-(Q)5-CONH2]

>  <Solubility (DMEM/10% FBS)>
Soluble

$$$$
>  <substance>
H-RRRRRRRRWDQQQQQQQQQQ-NH2 [Peptide 8R10Q, NH2-(R)8-W-D-(Q)10-CONH2]

>  <Solubility (DMEM/10% FBS)>
Soluble

$$$$
>  <substance>
H-RRRRRRRRWDQQQQQQQQQQQQQQQQQQQQ-NH2 [Peptide 8R20Q, NH2-(R)8-W-D-(Q)20-CONH2]

>  <Solubility (DMEM/10% FBS)>
aggregated

$$$$
>  <substance>
H-RRRRRRRRWD-NH2 [Peptide 8R, NH2-(R)8-W-D-CONH2, reference compound]

>  <Solubility (DMEM/10% FBS)>
Soluble

$$$$
>  <substance>
H-RQQRRQQDQRQWQRQRQQRR-NH2 [s8R10Q, reference compound]

>  <Solubility (DMEM/10% FBS)>
Soluble

$$$$
>  <substance>
TAMRA-NH-RQQRRQQDQRQWQRQRQQRR-CONH2 ({TAMRA}-RQQRRQQDQRQWQRQRQQRR-NH2) [TAMRA-s8R10Q, reference compound]

>  <Solubility (DMEM/10% FBS)>
Soluble

$$$$
>  <substance>
H-RRRRRRRRWDQQQQQQQQQQQQQQQ-NH2 [Peptide 8R15Q, NH2-(R)8-W-D-(Q)15-CONH2]

>  <Solubility (DMEM/10% FBS)>
aggregated

$$$$
